# Tested on: NCI-H2009
# Protocol description: relative viability (nuclei count vs DMSO), 5 days (fraction); higher = more cells survive
# Test parameters: first compound 0.5 µM
For each record, write down the corresponding relative viability.
Numbers only.

# Compound, relative viability
measured = [
    ("COc1cc2nccc(Oc3ccc(NC(=O)Nc4cc(C)on4)c(Cl)c3)c2cc1OC [Tivozanib] + CC(=O)Nc1cccc(-n2c(=O)n(C3CC3)c(=O)c3c(Nc4ccc(I)cc4F)n(C)c(=O)c(C)c32)c1 [Trametinib] (partner 0.02 µM)", 0.339),
    ("COc1cc2nccc(Oc3ccc(NC(=O)Nc4cc(C)on4)c(Cl)c3)c2cc1OC [Tivozanib] + Nc1ncn([C@H]2C[C@H](O)[C@@H](CO)O2)c(=O)n1 [Decitabine] (partner 2 µM)", 0.368),
]

# per-item lookup of relative viability; items listed below
1. COc1cc2nccc(Oc3ccc(NC(=O)Nc4cc(C)on4)c(Cl)c3)c2cc1OC [Tivozanib] + COc1cccc2cc(-c3nc([C@H]4CC[C@H](C(=O)O)CC4)n4ncnc(N)c34)[nH]c12 [OSI-027] (partner 0.5 µM)
2. Nc1ccn([C@@H]2O[C@H](CO)[C@@H](O)[C@@H]2O)c(=O)n1 [Cytarabine] + C[C@@H](Oc1cc(-c2cnn(C3CCNCC3)c2)cnc1N)c1c(Cl)ccc(F)c1Cl [Crizotinib] (partner 1 µM)

1. 0.386
2. 0.298

Kindly give each listed record's relative viability.
1. COc1cc2nccc(Oc3ccc(NC(=O)Nc4cc(C)on4)c(Cl)c3)c2cc1OC [Tivozanib] + C[C@@H](Oc1cc(-c2cnn(C3CCNCC3)c2)cnc1N)c1c(Cl)ccc(F)c1Cl [Crizotinib] (partner 1 µM)
2. COc1cc2nccc(Oc3ccc(NC(=O)Nc4cc(C)on4)c(Cl)c3)c2cc1OC [Tivozanib] + Nc1nc2[nH]cc(CCc3ccc(C(=O)N[C@@H](CCC(=O)O)C(=O)O)cc3)c2c(=O)[nH]1 [Pemetrexed] (partner 0.2 µM)

1. 0.933
2. 0.933

FYI, the data here is from the supplement of paper PMC10307832.
